TEST: Retention time of the compound.
Format: ADME
OUTCOME MEASURE: tR (min)
Write it as a number; the unit min goes unstated.

Sample records with tR:
MOLECULE | UNIT ABBREV | tR
COc1c(O)cc2c(c1OC)-c1ccc(SC)c(=O)cc1C(NC(=O)C(F)(F)F)CC2 (configuration not stated) | min | 5.3
COc1cc2c(c(OC)c1OC)-c1ccc(=N)c(O)cc1C(NC(C)=O)CC2 (configuration not stated) | min | 4
CC/N=c1/ccc2c(cc1O)C(NC(C)=O)CCc1cc(OC)c(OC)c(OC)c1-2 (configuration not stated) | min | 7.5
COc1cc2c(c(OC)c1OC)-c1cc/c(=N/CC(F)(F)F)c(O)cc1C(NC(=O)C(F)(F)F)CC2 (configuration not stated) | min | 10.6
COc1cc2c(c(OC)c1O)-c1ccc(OC)c(=O)cc1C(NC(=O)C(F)(F)F)CC2 (configuration not stated) | min | 3.8

get_value(item= COc1cc2c(c(OC)c1OC)-c1cc/c(=N/CC(F)(F)F)c(O)cc1C(NC(C)=O)CC2 (configuration not stated) , readout=tR) returns 7.4

Documented tR of "COc1cc2c(c(OC)c1OC)-c1ccc(OC)c(=O)cc1[C@@H](NC(=O)C(F)(F)F)CC2" : 5.4

====

Measured pEC50 of individual entries
Tested on: P388
TEST: Cytotoxic activity against P388 mouse lymphocytic leukemia cell line
Format: functional
TEST CONTEXT: read-out: ED50 (the source's name)
pEC50 field: float, defined as -log10 of concentration (mol/L).

COMPOUND | pEC50
COc1cc2c(c(OC)c1OC)-c1ccc(=N)c(O)cc1C(NC(C)=O)CC2 (stereo not given) | 7.89
COc1cc2c(c(OC)c1OC)-c1cc/c(=N/CCF)c(O)cc1C(NC(C)=O)CC2 (stereo not given) | 7.64
COc1cc2c(c(OC)c1OC)-c1ccc(OC)c(=O)cc1[C@@H](NC(=O)C(F)(F)F)CC2 | 8.40

The measured pEC50 associated with COc1cc2c(c(OC)c1OC)-c1cc/c(=N/CC(F)(F)F)c(O)cc1C(NC(C)=O)CC2 (stereo not given) reads 7.29

// field: pEC50; key: COc1cc2c(c(OC)c1OC)-c1ccc(=O)c(O)cc1C(NC(C)=O)CC2 (stereo not given) ; value = 5.92

====

TEST: Retention time of the compound.
Format: ADME
OUTCOME MEASURE: tR

Consider the worked cases shown below.
COMPOUND | tR
COc1c(O)cc2c(c1OC)-c1ccc(SC)c(=O)cc1C(NC(C)=O)CC2 (stereo not given) | 3.8 min
COc1cc2c(c(OC)c1OC)-c1ccc(OC)c(=O)cc1[C@@H](NC(C)=O)CC2 | 3.9 min
COc1cc2c(c(OC)c1OC)-c1cc/c(=N/CCF)c(O)cc1C(NC(C)=O)CC2 (stereo not given) | 5.1 min
COc1cc2c(c(OC)c1O)-c1ccc(OC)c(=O)cc1C(NC(C)=O)CC2 (stereo not given) | 3 min

Proceeding to the next compound to report its tR.
For reference, reported tR for COc1cc2c(c(OC)c1OC)-c1ccc(=N)c(O)cc1C(NC(=O)C(F)(F)F)CC2 (stereo not given) stands at 5.7 min

====

TEST: Partition coefficient (logP)
Format: physicochemical
TEST CONTEXT: octanol/water
Kindly apply the following: 1 if logP is less than 1, -1 in every other case.

Examples from the recorded data:
COMPOUND | ASSIGNED CATEGORY
COc1cc2c(c(OC)c1OC)-c1ccc(OC)c(=O)cc1[C@@H](NC(=O)C(F)(F)F)CC2 | -1
COc1cc2c(c(OC)c1OC)-c1ccc(OC)c(=O)cc1[C@@H](NC(C)=O)CC2 [COLCHICINE] | 1
COc1cc2c(c(OC)c1O)-c1ccc(OC)c(=O)cc1C(NC(C)=O)CC2 (stereo unspecified) | 1
COc1c(O)cc2c(c1OC)-c1ccc(SC)c(=O)cc1C(NC(=O)C(F)(F)F)CC2 (stereo unspecified) | -1
COc1cc2c(c(OC)c1OC)-c1ccc(=N)c(O)cc1C(NC(C)=O)CC2 (stereo unspecified) | 1

Problem: I wonder whether COc1cc2c(c(OC)c1OC)-c1cc/c(=N/CC(F)(F)F)c(O)cc1C(NC(=O)C(F)(F)F)CC2 (stereo unspecified) has logP below 1. Can you tell?
Solution: -1

Problem: Lab log: compare recorded logP with 1; is it strictly lower for COc1cc2c(c(OC)c1OC)-c1ccc(=N)c(O)cc1C(NC(=O)C(F)(F)F)CC2 (stereo unspecified) ?
Solution: -1

Problem: Lab note: confirm whether the reported logP for this compound is below 1, equality not counting. compound: COc1cc2c(c(OC)c1OC)-c1ccc(=O)c(O)cc1C(NC(C)=O)CC2 (stereo unspecified)
Solution: -1

Just for reference, ChEMBL document CHEMBL1125801 is where these values come from.
